- test system: α4β7 integrin (Homo sapiens (Human), UniProt P13612+P26010)
- Sequence (P13612 34-1032): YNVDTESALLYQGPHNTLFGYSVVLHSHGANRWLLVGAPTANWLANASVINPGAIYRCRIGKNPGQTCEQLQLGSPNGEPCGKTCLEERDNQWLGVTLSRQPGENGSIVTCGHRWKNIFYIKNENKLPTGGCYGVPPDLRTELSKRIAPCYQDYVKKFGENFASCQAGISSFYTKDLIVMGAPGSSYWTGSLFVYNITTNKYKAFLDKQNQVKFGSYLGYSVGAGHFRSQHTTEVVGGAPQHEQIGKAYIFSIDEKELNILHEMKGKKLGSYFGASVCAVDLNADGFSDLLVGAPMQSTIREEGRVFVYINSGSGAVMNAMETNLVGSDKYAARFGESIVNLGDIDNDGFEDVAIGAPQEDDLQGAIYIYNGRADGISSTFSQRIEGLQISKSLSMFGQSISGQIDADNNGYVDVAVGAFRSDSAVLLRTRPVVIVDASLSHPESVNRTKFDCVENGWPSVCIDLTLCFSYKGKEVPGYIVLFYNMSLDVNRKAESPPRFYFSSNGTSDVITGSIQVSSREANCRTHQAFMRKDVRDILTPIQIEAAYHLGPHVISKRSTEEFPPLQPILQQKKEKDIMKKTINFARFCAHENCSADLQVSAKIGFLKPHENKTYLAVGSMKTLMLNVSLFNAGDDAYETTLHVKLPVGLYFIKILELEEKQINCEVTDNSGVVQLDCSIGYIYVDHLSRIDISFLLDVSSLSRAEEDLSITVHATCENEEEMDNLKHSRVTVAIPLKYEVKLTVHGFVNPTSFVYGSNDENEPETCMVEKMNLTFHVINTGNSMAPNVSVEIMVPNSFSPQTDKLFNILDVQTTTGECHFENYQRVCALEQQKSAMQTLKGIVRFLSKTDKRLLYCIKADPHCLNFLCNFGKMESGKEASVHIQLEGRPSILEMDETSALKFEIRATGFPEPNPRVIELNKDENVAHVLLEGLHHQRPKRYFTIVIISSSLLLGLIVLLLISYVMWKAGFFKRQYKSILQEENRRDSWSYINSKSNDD
- Sequence (P26010 20-798): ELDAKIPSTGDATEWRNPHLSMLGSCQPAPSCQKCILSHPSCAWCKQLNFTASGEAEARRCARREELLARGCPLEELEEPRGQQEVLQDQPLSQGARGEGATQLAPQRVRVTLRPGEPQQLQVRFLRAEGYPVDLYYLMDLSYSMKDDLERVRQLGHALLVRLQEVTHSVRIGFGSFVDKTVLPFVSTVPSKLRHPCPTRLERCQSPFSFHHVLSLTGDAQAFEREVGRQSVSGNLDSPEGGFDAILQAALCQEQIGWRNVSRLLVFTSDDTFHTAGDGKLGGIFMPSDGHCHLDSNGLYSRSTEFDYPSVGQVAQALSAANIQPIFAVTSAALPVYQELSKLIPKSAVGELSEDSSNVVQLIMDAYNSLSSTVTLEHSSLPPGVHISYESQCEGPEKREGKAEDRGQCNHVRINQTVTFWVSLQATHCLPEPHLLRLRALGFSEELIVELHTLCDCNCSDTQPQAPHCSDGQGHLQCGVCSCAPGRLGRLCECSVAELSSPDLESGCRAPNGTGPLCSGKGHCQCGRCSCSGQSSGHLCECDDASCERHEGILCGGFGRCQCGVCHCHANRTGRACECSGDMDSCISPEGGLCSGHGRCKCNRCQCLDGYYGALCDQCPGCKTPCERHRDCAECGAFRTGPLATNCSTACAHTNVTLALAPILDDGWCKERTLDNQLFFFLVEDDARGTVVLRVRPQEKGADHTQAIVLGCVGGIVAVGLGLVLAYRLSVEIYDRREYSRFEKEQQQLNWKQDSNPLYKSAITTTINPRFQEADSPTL
- method description: α4β7 Integrin Cell Capture Assay
- Format: cell-based
- reported conditions: RPMI8866 cells captured on MadCAM-1 extracellular domain-coated plate
Note to self: class labels come from recorded EC50, ranges listed here: one: < 0.1 nM; two: ≥ 0.1 nM and < 0.2 nM; three: ≥ 0.2 nM

>>> assigned_class("Cc1cc(-c2nccn2CC(F)(F)F)cc(F)c1C(=O)N[C@@H](Cc1ccc(-c2c(C(F)(F)F)cc(C)n(C)c2=O)c2ncccc12)C(=O)O")
"three"
>>> assigned_class("Cn1c2c(cc(-c3ccc(C[C@H](NC(=O)c4c(F)cc(N5CCOC[C@@H]5C(F)(F)F)cc4F)C(=O)O)c4cccnc34)c1=O)CNCC2")
"three"
>>> assigned_class("Cn1c(=O)n(-c2ccc(C[C@H](NC(=O)c3c(F)cc(N4CCOC[C@@H]4C(F)(F)F)cc3Cl)C(=O)O)c3cccnc23)c(=O)c2ccncc21")
"one"
>>> assigned_class("Cc1cc(N2CCOC3(CC3)C2)cc(F)c1C(=O)N[C@@H](Cc1ccc(-c2c(C(F)(F)F)cc(C)n(C)c2=O)c2ncccc12)C(=O)O")
"three"
>>> assigned_class("Cc1cc(N2CC(F)(F)C2)c(-c2ccc(C[C@H](NC(=O)c3c(F)cc(N4CCOC[C@@H]4C(F)(F)F)cc3F)C(=O)O)c3cccnc23)c(=O)n1C")
"three"
>>> assigned_class("Cc1cc(N2CCOC[C@@H]2C(F)(F)F)cc(F)c1C(=O)N[C@@H](Cc1ccc(-n2c(=O)c3ccncc3n(C)c2=O)c2ncccc12)C(=O)O (atropisomer, axis not shown) [Example 408]")
"one"
>>> assigned_class("CC[C@@H](Nc1cc(F)c(C(=O)N[C@@H](Cc2ccc(-n3c(=O)c4ccncc4n(C)c3=O)c3ncccc23)C(=O)O)c(F)c1)C(F)(F)F")
"two"
>>> assigned_class("Cc1cc(-c2nccn2CC(F)(F)F)cc(F)c1C(=O)N[C@@H](Cc1ccc(-n2c(=O)c3ccncc3n(C)c2=O)c2ncccc12)C(=O)O")
"three"
>>> assigned_class("CC[C@@H](Nc1cc(C)c(C(=O)N[C@@H](Cc2ccc(-c3c(C)nc(C)n(C)c3=O)c3ncccc23)C(=O)O)c(F)c1)C(F)(F)F")
"three"
>>> assigned_class("Cc1cc(N2CCOC[C@@H]2C(F)(F)F)cc(F)c1C(=O)N[C@@H](Cc1ccc(-c2c(C(F)(F)F)cc(C)n(C)c2=O)c2ncccc12)C(=O)O (atropisomer, axis not shown)")
"one"
>>> assigned_class("Cn1c(=O)n(-c2ccc(C[C@H](NC(=O)c3c(F)cc(N4CCOC[C@@H]4C(F)(F)F)cc3F)C(=O)O)c3cccnc23)c(=O)c2ccncc21")
"two"
>>> assigned_class("Cn1c(=O)c(-c2ccc(C[C@H](NC(=O)c3c(F)cc(N4CCOC[C@@H]4C(F)(F)F)cc3F)C(=O)O)c3cccnc23)nc2ccccc21")
"two"
>>> assigned_class("CC[C@@H](Nc1cc(F)c(C(=O)N[C@@H](Cc2ccc(-c3nc(C)c(C)n(C)c3=O)c3ncccc23)C(=O)O)c(F)c1F)C(F)(F)F")
"three"
>>> assigned_class("COc1cnc2c(=O)n(-c3ccc(C[C@H](NC(=O)c4c(C)cc(N5CCOC[C@@H]5C(F)(F)F)cc4F)C(=O)O)c4cccnc34)c(=O)n(C)c2c1")
"one"
>>> assigned_class("Cc1cc(N2CCOC[C@@H]2C(F)(F)F)cc(F)c1C(=O)N[C@@H](Cc1ccc(-n2c(=O)c3cc(F)ncc3n(C)c2=O)c2ncccc12)C(=O)O")
"two"
>>> assigned_class("Cc1cc(C(F)(F)F)c(-c2ccc(C[C@H](NC(=O)c3c(F)cc(N4CCO[C@@H](C)[C@@H]4C(F)(F)F)cc3F)C(=O)O)c3cccnc23)c(=O)n1C")
"two"
>>> assigned_class("Cc1cc(N2CCOC[C@@H]2C(F)(F)F)cc(F)c1C(=O)N[C@@H](Cc1ccc(-c2c(C)c(C(F)(F)F)cn(C)c2=O)c2ncccc12)C(=O)O")
"three"
>>> assigned_class("Cc1cc(N2CCOC[C@@H]2C(F)(F)F)cc(F)c1C(=O)N[C@@H](Cc1ccc(-n2c(=O)[nH]c3cnccc3c2=O)c2ncccc12)C(=O)O")
"two"
>>> assigned_class("Cc1cc(N2CCOC[C@@H]2C(F)(F)F)cc(F)c1C(=O)N[C@@H](Cc1ccc(-c2cnc(C)n(C)c2=O)c2ncccc12)C(=O)O")
"three"
>>> assigned_class("Cc1cc(N2CCOC[C@@H]2C(F)(F)F)cc(F)c1C(=O)N[C@@H](Cc1ccc(-c2c(C(F)(F)F)nc(C)n(C)c2=O)c2ncccc12)C(=O)O")
"one"
>>> assigned_class("Cc1cc(N2CCOC[C@@H]2C(F)(F)F)cc(F)c1C(=O)N[C@@H](Cc1ccc(-c2nc(C)c(C)n(C)c2=O)c2ncccc12)C(=O)O")
"two"
